Recorded inhibition at 72 h, 50 ug/ml, one value per entry.
- experimentDescription: Cytotoxicity against human HEK293T cells assessed as inhibition of cell growth at 50 ug/ml after 72 hrs by MTT assay relative to control
- Format: cell-based, HEK-293T
- conditionDescription: read-out: GI

Guide cases for inhibition at 72 h, 50 ug/ml, answers given:
ClC1=C(CN2CCN(Cc3ccccc3)CC2)CCc2nc(-c3cccs3)ccc21 : 19.9%
COc1ccccc1N1CCN(CC2=C(Cl)c3ccc(-c4cccs4)nc3CC2)CC1 : 36.7%
ClC1=C(CN2CCOCC2)CCc2nc(-c3cccs3)ccc21 : 34%
ClC1=C(CN2CCN(c3ccccn3)CC2)CCc2nc(-c3cccs3)ccc21 : 20.1%
O=C(C1CC1)N1CCN(CC2=C(Cl)c3ccc(-c4cccs4)nc3CC2)CC1 : 28.9%

Continue with the molecule presented below.
(Q) Write down inhibition at 72 h, 50 ug/ml measured for item Fc1ccccc1N1CCN(CC2=C(Cl)c3ccc(-c4cccs4)nc3CC2)CC1
(A) 32.6%
